Please provide measured pIC50 for the entries that follow.
Test system: H1975 cells
Assay: H1975 CTG proliferation assay
Type: cell-based
Settings: Homo sapiens, NCI-H1975, H1975, CTG
Answers are plain numbers, as −log10 of the molar value.

# map each compound to its pIC50
1. C[C@H](c1cccnc1N)N1CCOc2nc(-c3c(F)ccc4cnn(C)c34)c(F)c3nc(OC[C@@]45CCCN4C[C@H](F)C5)nc1c23 [Example 634]
2. Cc1c(F)c(N)cc(-c2nc3c4c(nc(OC[C@@]56CCCN5C[C@H](F)C6)nc4c2F)N([C@H](C)c2nccnc2N)CCO3)c1C(F)(F)F [Example 9]
3. Cc1cc(N)c(F)c(-c2nc3c4c(nc(OC[C@@]56CCCN5C[C@H](F)C6)nc4c2F)N([C@H](C)c2cccnc2N)CCO3)c1C(F)(F)F [Example 15]
4. C#Cc1cccc2cc(N)cc(-c3nc4c5c(nc(OC[C@@]67CCCN6C[C@H](F)C7)nc5c3F)N([C@H](C)c3cccnc3N)CCO4)c12 [Example 4]
5. Cc1c(F)c(N)cc(-c2nc3c4c(nc(OC[C@@]56CCCN5C[C@H](F)C6)nc4c2F)N([C@H](C)c2cccnc2N)CCO3)c1CC(F)F [Example 612]

[5.44, 7.95, 8.59, 8.59, 5.60]
